test description: NCI Yeast Anticancer Drug Screen. Data for the rad50 strain (AID 155);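 also: 0% = growth of vehicle-only cultures of the same strain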
assay conditions: S. cerevisiae rad50 strain growth inhibition; at 11.0 µM
About 79,000 compounds went through this panel and 15% of them were active in at least one assay; those are over-represented in the sample as a whole. Active and inactive are the calls of the source. Rule as the data show it: active = growth inhibition above about 70%; inactive = the rest.
Field 'call' accepts yes (1) for active, no (0) for inactive

Cc1cc2c(cc1C(=O)CCC(=O)O)CC1(C2)Cc2cc(C)c(C(=O)CCC(=O)O)cc2C1 ... no (0)
CCCCCCCCCCCCCCC(C(=O)[O-])[n+]1ccccc1 (stereo unspecified) ... no (0)
O=C1C2CC[C@@H]3C(=O)C(Cl)(Cl)[C@@H]3CCC2C1(Cl)Cl (stereo partly specified) ... no (0)
Oc1c(Br)cc(Br)cc1C1CCCCC1 ... no (0)
CC(C)c1ccccc1NC(=O)/C(Cl)=C(\Cl)C(=O)O ... no (0)
O=C(Nc1ccc(Cl)cc1)OCC#CCCl ... no (0)
CCC(=O)OCCn1c2nc(=O)[nH]c(=O)c-2nc2cc(C)c(C)cc21 ... no (0)
Cc1ccc2ccc3cccc4ccc1c2c34 ... no (0)
CC1=NN(c2cccc(Cl)c2)C(=O)C1 ... no (0)
Cc1cc(N=Nc2ccc(S(=O)(=O)[O-])cc2)cc(C(=O)[O-])c1[O-].NC1CCCCC1N.[Na+].[Pt+4] ... yes (1)

Could you please tell me the result logged for `CCN(CC)CCC(=O)c1ccc(Oc2ccc(F)cc2)cc1` in this assay? no (0)

====

test description: NCI Yeast Anticancer Drug Screen. Data for the rad50 strain (AID 155);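 also: 0% = growth of vehicle-only cultures of the same strain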
assay conditions: S. cerevisiae rad50 strain growth inhibition; at 33.0 µM
The panel holds about 79,000 compounds, 15% with a hit somewhere; the sample as a whole holds those more often. Activity calls are given as the source filed them. No stated cut-off is given here; in the data, active means growth inhibition above about 70%; inactive means the rest.
Field 'call' accepts class 1 = active, class 0 = inactive

COC1C=COC2(C)Oc3c(C)c(O)c4c(c3C2=O)/C(=N/C2CCC(O)OC2C)C=C(NC(=O)/C(C)=C\C(=O)C2CC2C(O)C(C)C(O)C(C)C(OC(C)=O)C1C)C4=O (stereo not given) ... class 0
O=C(O)CNc1ccc(Cl)c(Cl)c1 ... class 1
CC(C)C1=CC2=C[C@H](O)[C@H]3C(C)(C)CCC[C@]3(C)C2=C(O)C1=O ... class 1
CN(C)CCOc1ccc2c(c1)C/C(=C/c1ncc([N+](=O)[O-])n1C)C2=O ... class 1
Cc1ccc(NC(=O)/C(Cl)=C(\Cl)C(=O)O)cc1C ... class 1
CCCCN1C(=O)N(c2ccc(OCC)cc2)C2N(CCCC)C1C(C)(C)C2(C)C (stereo not given) ... class 0
N#Cc1c(N)[nH]c2ccc(Sc3ccccc3)cc12 ... class 1
Cn1c2ccccc2c(=O)c2cc(NC(=O)CCCCC(=O)Nc3ccc4c(c3)c(=O)c3ccccc3n4C)ccc21 ... class 1
Cc1c(Cl)ccc2c1S(=O)(=O)c1cccc(Cl)c1-2 ... class 0
CNC1C(OC2C(OC3C(O)C(O)C(N=C(N)N)C(O)C3N=C(N)N)OC(C)C2(O)CO)OC(CO)C(O)C1O (stereo not given) ... class 0

Could you please tell me the result logged for `O=S(=O)(CCCl)c1ccccc1Cl` in this assay? class 1

Could you please tell me the result logged for `CCOC(=O)c1cc(-c2ccc(Cl)cc2)c([N+](=O)[O-])n1C` in this assay? class 1

Could you please tell me the result logged for `COc1ccc2nc3c([N+](=O)[O-])ccc(NCCN(C)C)c3c(NCCN(C)C)c2c1` in this assay? class 0

Could you please tell me the result logged for `COc1ccccc1/C=C1\Sc2scc(-c3cccc([N+](=O)[O-])c3)[n+]2C1=O` in this assay? class 1

Could you please tell me the result logged for CCOP(=O)(OCC)C(Cc1ccccc1)N=C(c1ccccc1)c1ccccc1 (stereo not given) in this assay? class 1

Could you please tell me the result logged for `CN1Cc2ccccc2/C=C\c2ccccc21` in this assay? class 0

Could you please tell me the result logged for COc1cc(C2SCC(=O)N2c2nnc(C(F)(F)F)s2)cc(OC)c1OC (stereo not given) in this assay? class 0

Could you please tell me the result logged for COc1ccc(C2c3cc4c(cc3OC(C)(O)C2C)OCO4)c(OC)c1 (stereo not given) in this assay? class 0

Could you please tell me the result logged for `CC[C@@]1(O)C(=O)OCc2c1cc1n(c2=O)Cc2cc3c(CN(C)C)c(O)ccc3nc2-1` in this assay? class 1

Could you please tell me the result logged for Nc1ccn(C2OC(CO)C3[O][Sn]([c]4ccccc4)([c]4ccccc4)[O]C32)c(=O)n1 (stereo not given) in this assay? class 0
